test system: SK-MEL-5 melanoma; test: NCI-60 one-dose screen, 48 h (100 = growth as untreated, 0 = no growth, -100 = all killed); details: 10 µM unless noted
The panel holds about 83,000 compounds, 20% with a hit somewhere; the sample as a whole holds those more often.
Quick rule for you: growth under 50% gets Yes, anything else gets No.

{"Compound": "CC1=C([Se]CC(OC(=O)CC[Se]c2ccccc2)C(=O)NCCCCCC(=O)OCc2ccccc2)C(=O)c2ccccc2C1=O (stereo unspecified)", "Class Name": "Yes"}
{"Compound": "CCOC(=O)C/C(C)=N\\NC(=O)c1ccncc1", "Class Name": "No"}
{"Compound": "COc1ccc2c(c1)O/C(=C/c1ccc(OCC(=O)c3ccccc3)cc1)C2=O", "Class Name": "No"}
{"Compound": "Cc1cc(NCc2cc(Nc3ccnc4cc(Cl)ccc34)ccc2F)nc(Cl)n1", "Class Name": "Yes"}
{"Compound": "Cc1c(C(=O)NC(Cc2ccccc2)C(O)C(=O)NCc2ccc(F)cc2)[nH]c2ccccc2c1=O (stereo unspecified)", "Class Name": "No"}
{"Compound": "COCN1CCC2N(COC)CCC3N(COC)CCC1N23 (stereo unspecified)", "Class Name": "No"}
{"Compound": "O=c1oc2ccccc2c(Cl)c1Cl", "Class Name": "Yes"}
{"Compound": "CCn1c(C)nc2cc(C(N)=O)ccc21", "Class Name": "No"}
{"Compound": "O=[N+]([O-])c1ccc(OCCO)cc1", "Class Name": "No"}
{"Compound": "COC(=O)c1ccc(CSc2nnc(-c3c(C)nc4ccc(C)cn34)o2)cc1", "Class Name": "No"}
{"Compound": "COc1nc(N(C)O)nc(N(C)O)n1", "Class Name": "Yes"}
